Hey, just so you know, these numbers are from PubChem BioAssay AID1963863.

test system: 931267-113-T-J1-PDC KRAS spheroid with HUVEC/MSC, viability; assay: Anticancer human tumor 931267-113-T-J1-PDC patient-derived colon adenocarcinoma cell line growth inhibition [KRAS2]; settings: second compound 1 µM; first compound 0.316 µM; stronger effect = lower value
measured-attribute: viability, T/C (%)
All answers are understood in %, so give the number only.

Example entries and their recorded answers appear below.
[[record]]
compound = "COc1cc2nccc(Oc3ccc(NC(=O)C4(C(=O)Nc5ccc(F)cc5)CC4)cc3)c2cc1OC + C=CC(=O)N1CCN(c2nc(OCC3CCCN3C)nc3c2CCN(c2cccc4cccc(C)c24)C3)CC1CC#N"
test_system = "931267-113-T-J1-PDC KRAS spheroid with HUVEC/MSC, viability"
measured_attribute = "viability, T/C"
unit_symbol = "%"
numeric_value = 92.8

[[record]]
compound = "CCNC(=O)CC1N=C(c2ccc(Cl)cc2)c2cc(OC)ccc2-n2c(C)nnc21 (centres undefined) + C=CC(=O)N1CCN(c2nc(OCC3CCCN3C)nc3c2CCN(c2cccc4cccc(C)c24)C3)CC1CC#N"
test_system = "931267-113-T-J1-PDC KRAS spheroid with HUVEC/MSC, viability"
measured_attribute = "viability, T/C"
unit_symbol = "%"
numeric_value = 61.1


Prompt line: Would you kindly share the measured viability, T/C for Cn1nccc1Nc1nccc(-c2cc3c(s2)C(C)(C)N(CCN2CCOCC2)C3=O)n1 + C=CC(=O)N1CCN(c2nc(OCC3CCCN3C)nc3c2CCN(c2cccc4cccc(C)c24)C3)CC1CC#N ?
Response line: 59.7

Prompt line: Again, but for CC1COCCN1c1cc(-c2ccnn2C)c2ccnc(-c3ccn[nH]3)c2n1 (centres undefined) + CNCc1ccccc1-c1csc(C(C)Nc2nc(C)nc3cc(OC)c(OC)cc23)c1
Response line: 7.5

* * *

Readings of viability, T/C for the listed compounds
test system: 931267-113-T-J1-PDC KRAS spheroid with HUVEC/MSC, viability; test: Anticancer human tumor 931267-113-T-J1-PDC cell line growth inhibition [KRAS2]; settings: second compound 0.1 µM; first compound 0.000316 µM; stronger effect = lower value;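 note: compound exposure lasted 7 days before the readout; 100% = DMSO vehicle control viability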
Record the value in %, omitting the unit from your answer.

Below, each entry is followed by its recorded viability, T/C result.
[[record]]
compound = "CN(C)C/C=C/C(=O)Nc1cc2c(Nc3ccc(F)c(Cl)c3)ncnc2cc1O[C@H]1CCOC1 + CNCc1ccccc1-c1csc(C(C)Nc2nc(C)nc3cc(OC)c(OC)cc23)c1"
numeric_value = 88

[[record]]
compound = "CC(=O)Nc1cccc(-n2c(=O)n(C3CC3)c(=O)c3c(Nc4ccc(I)cc4F)n(C)c(=O)c(C)c32)c1 + CNCc1ccccc1-c1csc(C(C)Nc2nc(C)nc3cc(OC)c(OC)cc23)c1"
numeric_value = 89.1


Shifting focus to the compound that follows.
Prompt line: For 931267-113-T-J1-PDC KRAS spheroid with HUVEC/MSC, viability, provide viability, T/C of CC(C)n1nc(-c2ccc3oc(N)nc3c2)c2c(N)ncnc21 + CC1OCC2(CCN(c3cnc(Sc4ccnc(N)c4Cl)c(N)n3)CC2)C1N please.
Response line: 90

* * *

system: 931267-113-T-J1-PDC KRAS spheroid with HUVEC/MSC, viability; test: Anticancer human tumor 931267-113-T-J1-PDC cell line growth inhibition [KRAS2]; conditions: second compound 0.1 µM; first compound 10 µM; stronger effect = lower value;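 note: compound exposure lasted 7 days before the readout; 100% = DMSO vehicle control viability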
# viability, T/C annotations

These solved cases illustrate the format of a correct answer.
[[record]]
molecule = "CCNC(=O)CC1N=C(c2ccc(Cl)cc2)c2cc(OC)ccc2-n2c(C)nnc21 (stereo not drawn) + C=CC(=O)N1CCN(c2nc(=O)n(-c3c(C)ccnc3C(C)C)c3nc(-c4c(O)cccc4F)c(F)cc23)C(C)C1"
measured_attribute = "viability, T/C"
result = "40.8%"

[[record]]
molecule = "COc1cc2nccc(Oc3ccc(NC(=O)C4(C(=O)Nc5ccc(F)cc5)CC4)cc3)c2cc1OC + C=CC(=O)N1CCN(c2nc(=O)n(-c3c(C)ccnc3C(C)C)c3nc(-c4c(O)cccc4F)c(F)cc23)C(C)C1"
measured_attribute = "viability, T/C"
result = "69%"


Prompt line: Which viability, T/C reading was recorded for the molecule Cn1nccc1Nc1nccc(-c2cc3c(s2)C(C)(C)N(CCN2CCOCC2)C3=O)n1 + C=CC(=O)N1CCN(c2nc(OCC3CCCN3C)nc3c2CCN(c2cccc4cccc(C)c24)C3)CC1CC#N ?
Response line: 4.43%
